The measurements presented in this section are drawn from patent US4879313A.

Tested on: ADP-induced platelet aggregation in human PRP
Assay: In-vitro human platelet aggregation in PRP (ADP-induced)
Type: cell-based
Conditions: compound at 10^-4 M, human platelet-rich plasma
Method: In one assay, platelet aggregation is examined in platelet-rich plasma which also is rich in fibrinogen and other plasma proteins. The % inhibition is determined for the test compound by comparing the extent of platelet aggregation in the presence and absence of the test compound. […] The compounds tested and their activity results in % inhibition at 10^-4 M and median inhibitory concentration (IC50) were as recorded in Table 1.
For each record, write down the corresponding HUMAN PRP % INHIBITION AT 10^-4 M.
The response must be a number in % with no trailing unit.

So for COc1ccc(CNC(=O)[C@H](CC(=O)O)NC(=O)CCCCCCCNC(=N)N)cc1 , the logged HUMAN PRP % INHIBITION AT 10^-4 M turned out to be 100

So for COc1ccc(CCNC(=O)[C@H](CC(=O)O)NC(=O)CCCCCCNC(=N)N)cc1 , the logged HUMAN PRP % INHIBITION AT 10^-4 M turned out to be 43

So for N=C(N)NCCCCCCCC(=O)N[C@@H](CC(=O)O)C(=O)N[C@@H](Cc1ccc(-c2ccccc2)cc1)C(N)=O , the logged HUMAN PRP % INHIBITION AT 10^-4 M turned out to be 100

So for COc1ccc(CCNC(=O)[C@H](CC(=O)O)NC(=O)CCCCCCCCNC(=N)N)cc1 , the logged HUMAN PRP % INHIBITION AT 10^-4 M turned out to be 100

So for COc1ccc(CCNC(=O)C(CC(=O)O)NC(=O)CCCCCCCNC(=N)N)cc1 (centres unmarked) , the logged HUMAN PRP % INHIBITION AT 10^-4 M turned out to be 100

So for COc1ccc(CCNC(=O)[C@H](CC(=O)O)NC(=O)CCCCCCCCCNC(=N)N)cc1 , the logged HUMAN PRP % INHIBITION AT 10^-4 M turned out to be 65

So for COc1ccc(CCNC(=O)[C@H](CC(=O)O)NC(=O)CNCCCCNC(=N)N)cc1 , the logged HUMAN PRP % INHIBITION AT 10^-4 M turned out to be 0

So for COc1ccc(CCNC(=O)[C@H](CC(=O)O)NC(=O)CCCCCCCNC(=N)N)cc1OC , the logged HUMAN PRP % INHIBITION AT 10^-4 M turned out to be 100
